I'd be grateful if you could share measured GI50 for these entries.
system: SW-620; test: NCI tumour cell line growth inhibition, 48 h
Activity calls are given as the source filed them. Rule as the data show it: active = GI50 up to about 1.1 µM and inactive = higher.

The cases that follow already have their GI50 on record.
CCOC(=O)C1=C(C(=O)c2ccc(C)cc2)C(c2cccc([N+](=O)[O-])c2)C(C(=O)c2ccc(C)cc2)=C(C(=O)OCC)N1    14.1 µM (inactive)
N#Cc1c(N2CCCC2)ncn(-c2ccccc2)c1=O    > 100 µM (inactive)
O=c1[nH]c2cc(C(F)(F)F)ccc2nc1Cc1ccccc1    > 100 µM (inactive)
O=S(=O)(CCC[C@H]1[C@@H](CCOCc2ccccc2)C2CCCN1O2)c1ccccc1 (stereo not given in full)    > 100 µM (inactive)
CC(=O)C1=C(O)C(N)C2Cc3c(c(O)c4c(O)c(C)ccc4c3C)C(=O)C2(O)C1=O (stereo not given)    2.79 µM (inactive)
O=c1c2ccccc2c2c1c1c3ccccc3c(=O)c1c1c3ccccc3c(=O)c21    > 100 µM (inactive)
Sc1nnc(COc2ccc(Cl)cc2Cl)[nH]1    > 100 µM (inactive)
C1CCN2CC34CC(CC5CCCN(C6CCCC3N6)C54)C2C1 (stereo not given)    > 100 µM (inactive)

For each of the compounds below, state GI50.
1. COc1ccc(/C=C2\N=C(c3ccccc3)OC2=O)cc1OC(C)=O
2. CSc1ccc2c(cc1=O)C(NC(=O)c1cc(O)c(OC(=O)O)c(O)c1)CCc1cc(O)c(O)c(O)c1-2 (stereo not given)

Reply:
1. 51.4 µM (inactive)
2. 14 µM (inactive)

###

I'd be grateful if you could share measured GI50 for these entries.
test system: DMS-114; test: NCI tumour cell line growth inhibition, 48 h
Calls of active or inactive are those of the source. Cut-off read from the data, not from the text of the source: active = GI50 up to about 1.1 µM and inactive = higher.

The cases that follow already have their GI50 on record.
CCCCCCCCCCCCCCCCNc1cccc2ccccc12    > 100 µM (inactive)
O=C(CC(=O)C(=O)CC(=O)OCc1ccccc1)OCc1ccccc1    > 100 µM (inactive)
CS/C(=N\c1ccc([N+](=O)[O-])cc1C#N)NC(=O)c1ccccc1    > 100 µM (inactive)

For each of the molecules below, state GI50.
1. CC(C(=O)O)/C(=C\c1ccc2c(c1)OCO2)C(=O)O (stereo not given)
2. CSc1ccc(/C=C2\CN(C)C/C(=C\c3ccc(SC)cc3)C2=O)cc1

Reply:
["> 100 µM (inactive)", "24.9 µM (inactive)"]

###

I'd be grateful if you could share measured GI50 for these entries.
system: MOLT-4; assay: NCI tumour cell line growth inhibition, 48 h
Active and inactive are the calls of the source. Rule as the data show it: active = GI50 up to about 1.1 µM and inactive = higher.

CCCc1cc(COC)c(C#N)c(O)n1    > 100 µM (inactive)

For each of the molecules below, state GI50.
1. CN(C)c1ccc(/C=N/c2nc3cc4sc(/N=C/c5ccc(N(C)C)cc5)nc4cc3s2)cc1
2. CCOC(=O)c1cccc(/N=N/c2ncc(/C=C/C(=O)OC)[nH]2)c1
3. c1csc(-c2ccsc2-c2cccs2)c1

Reply:
["12.9 µM (inactive)", "6.97 µM (inactive)", "11.9 µM (inactive)"]

###

tested on: MOLT-4; assay: NCI tumour cell line growth inhibition, 48 h
Active and inactive are the calls of the source. Cut-off read from the data, not from the text of the source: active = GI50 up to about 1.1 µM and inactive = higher. Where a SMILES comes first, the peptide text is derived from it. The star is where a group is joined. Boc = CC(C)(C)OC(=O)*
I'd be grateful if you could share measured GI50 for these entries.

The cases that follow already have their GI50 on record.
Cc1nn(C(=O)CC(=O)Nc2ccccc2Cl)c(C)c1/N=N/c1ccccc1Cl    > 100 µM (inactive)
C[C@@H]1C[C@@H]2OC(=O)[C@]3(C)[C@H]2[C@@H](OC3(C)O)[C@]2(C)C(=O)C=C[C@@H]12 (stereo partly specified)    16.4 µM (inactive)
COc1nc2c(c(=O)n1C)N(C(C)=O)C1C(N2)OCC(OC(C)=O)C1OC(C)=O (stereo unspecified)    > 10 µM (inactive)
Cc1cc(=O)oc2cc3oc(N(C)c4ccccc4)nc(=O)c3cc12    > 100 µM (inactive)

For each of the compounds below, state GI50.
1. C=CCc1cccc2cc(C(=O)NCc3ccccc3)c(=N)oc12
2. CCC1([N+](=O)[O-])CC2C=CC1C2 (stereo unspecified)
3. NC1=CN(Cc2ccccc2)C2=N/C(=C\c3ccccc3)C(=O)N12
4. O=C(O)C(Cc1ccccc1)N1C(=O)N/C(=C\c2ccc(F)cc2)C1=O (stereo unspecified)
5. COC(=O)C(CCSC)NC(=O)CNC(=O)CSc1nnc(COc2ccc(Cl)cc2)n1-c1ccccc1 (stereo unspecified)
6. Cc1ccc(NC(=O)CCc2nnc(S)[nH]2)cc1
7. COC(=O)C(Cc1c[nH]c2ccccc12)NC(=O)C(Cc1c[nH]c2ccccc12)NC(=O)C(Cc1c[nH]c2ccccc12)NC(=O)C(Cc1c[nH]c2ccccc12)NC(=O)C(Cc1c[nH]c2ccccc12)NC(=O)C(Cc1c[nH]c2ccccc12)NC(=O)C(Cc1c[nH]c2ccccc12)NC(=O)OC(C)(C)C (stereo unspecified) (Boc-WWWWWWW-OMe; configuration not given here)

Reply:
["> 100 µM (inactive)", "> 100 µM (inactive)", "97.3 µM (inactive)", "> 100 µM (inactive)", "5.36 µM (inactive)", "> 100 µM (inactive)", "40.6 µM (inactive)"]
